assay: HTRF signal interference by compounds, confirmation, artefact control for SUMOylation inhibitor project, biochemical, uHTS (AID 2069); conditions: HTRF interference counterscreen, fluorescence, at 35 µM, hits give high values
About 210 (18%) of roughly 1,200 compounds were called active. Not all results are given here.
property-label: inhibition (%)
Answers are plain numbers, in %.

Recorded inhibition, per entry:
compound: COc1ccc(-c2csc(CCN3N=C(C)CC3=O)n2)cc1
unit-text: %
obs-value: -4.6
//
compound: O=C1OC(Nc2ccc3ncccc3c2)c2ccccc21 (centres undefined)
unit-text: %
obs-value: 24
//
compound: O=C(N/N=C/c1ccc(N2CCOCC2)cc1)c1ccccc1NS(=O)(=O)c1cccs1
unit-text: %
obs-value: 24.1
//
compound: N#Cc1c(-c2ccccc2)nc(SCC(=O)N2c3ccccc3Sc3ccccc32)[nH]c1=O
unit-text: %
obs-value: 15.3
//
compound: O=C(O)/C=C/C(=O)Nc1ccc(O)cc1
unit-text: %
obs-value: -0.1

Record inhibition for all entries; do not skip any.
1. Cc1ccc(S(=O)(=O)C(C#N)c2nc3ccccc3nc2N2CCCC2)cc1C (centres undefined)
2. CN(C(=S)Nc1cccnc1)c1ccc(O)cc1
3. O=C1CC(c2ccco2)CC(O)=C1C=Nc1cc(Cl)ccc1Cl (centres undefined)
4. COc1cccc(/C=C2/SC(=S)N(CC(=O)NNC(=O)c3ccccc3O)C2=O)c1
5. Cc1ccc(C(=O)Nc2ccccc2C(=O)N2CCN(c3ccccc3)CC2)cc1

1. -3.55
2. 5.3
3. 1.35
4. -13
5. -8.05

###

experiment: HTRF signal interference by compounds, confirmation, artefact control for SUMOylation inhibitor project, biochemical, uHTS (AID 2069); conditions: HTRF interference counterscreen, fluorescence, at 35 µM, hits give high values
Out of some 1,200 compounds screened, about 210 (18%) were called active. These entries were drawn from the full list.
property-label: inhibition (%)
Numbers only, in %.

As a guide, the following entries are already answered.
molecule: CN(C)c1cc(Cl)c2nonc2c1N
unit-text: %
inhibition: 4.85

molecule: Cc1ccc(NC(=O)Cn2c(O)c(N=NC(=O)c3cc4ccccc4cc3O)c3ccccc32)cc1
unit-text: %
inhibition: 8.55

molecule: COc1ccc2c(c1)CC/C(=C\C=C\c1ccccc1)C2=O
unit-text: %
inhibition: 6.1

molecule: CCOc1ccc(N2CC(C(=O)NCc3ccc(F)cc3)CC2=O)cc1 (configuration not stated)
unit-text: %
inhibition: 34.9

molecule: COC1=C(Nc2ccccc2OC)C(=O)c2ccccc2C1=O
unit-text: %
inhibition: -37.9

molecule: CC(=O)Oc1ccc2c(C)c(CC(C)O)c(=O)oc2c1 (configuration not stated)
unit-text: %
inhibition: 42.2

molecule: O=C(Nc1ccc2oc(-c3cccc4ccccc34)nc2c1)c1ncn[nH]1
unit-text: %
inhibition: 16.2

molecule: CCOc1ccccc1CNc1ccc(O)cc1
unit-text: %
inhibition: -10.2

molecule: N#Cc1c(=O)c2nc(NCc3ccccc3)ncc2n2ccccc12
unit-text: %
inhibition: 26

molecule: O=[N+]([O-])c1cc(CN2CCN(c3cccc(C(F)(F)F)c3)CC2)c2cccnc2c1O
unit-text: %
inhibition: -18.5

Answer for every listed entry: what is its inhibition? The entries follow.
1. NC(=O)C1CCN(C2=C(NS(=O)(=O)c3ccc(Cl)cc3)C(=O)c3ccccc3C2=O)CC1
2. COc1cc(NS(=O)(=O)c2ccc(NC(=S)NC(=O)/C=C/c3ccco3)cc2)ncn1
3. Cc1ccccc1-c1nc2cc(N)ccc2o1
4. Cc1[nH]n(-c2ccccc2)c(=O)c1C(c1cccc([N+](=O)[O-])c1)c1c(C)[nH]n(-c2ccccc2)c1=O
5. Cc1ccc(-c2nc3cc(N)ccc3o2)cc1
6. Oc1ccc2ccccc2c1C=NCc1cn2ccsc2n1
7. O=C(CSc1nnc(SCc2ccccc2)s1)N/N=C/C=C\c1ccco1

-20.8
25.8
46.2
-11.2
55.7
0.1
3.25
